biological target: Glc(a1-6)Glc(a1-6)Glc; assay: glycan array binding signal (z-score within array); higher = stronger binding; settings: glycan notation: IUPAC condensed, linker removed
This excerpt belongs to a sample that is enriched for the strongest signals.
outcome.measure: glycan array binding signal (z-score)
Respond numerically, and do not add a unit to the figure.

Q) So what does the record say about glycan array binding signal (z-score) for LKPARMA (Neurospora crassa) (protein) MSFHVTAEDARRIEVRDNRTILFARLRREDGEWNDASYELDQIIGNNDGHFQWGGGQNFTETAEDIRFHPKEGAAEQPILRARLRDCNGEFHDRDVNLTEIVENVNGEFQAKF ?
A) 7.12

Q) Would you kindly repeat that for ZG16p (Homo sapiens), O60844 (protein) ARSSSYSGEYGGGGGKRFSHSGNQLDGPITALRVRVNTYYIVGLQVRYGKVWSDYVGGRNGDLEEIFLHPGESVIQVSGKYKWYLKKLLFVTDKGRYLSFGKDSGTSFNAVPLHPNTVLRFISGRSGSLIDAIGLHWDVYPSSCSRC ?
A) 0.475

Q) // repeat for LcH (Lens culinaris), P02870 (protein) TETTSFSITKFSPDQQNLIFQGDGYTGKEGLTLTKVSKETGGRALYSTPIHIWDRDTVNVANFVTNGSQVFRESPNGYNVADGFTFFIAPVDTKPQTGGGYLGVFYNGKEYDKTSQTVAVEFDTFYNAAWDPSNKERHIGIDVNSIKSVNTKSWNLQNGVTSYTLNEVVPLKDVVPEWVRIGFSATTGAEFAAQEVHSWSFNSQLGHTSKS and report
A) -0.098

Q) UEA-I (Ulex europaeus), P22972 (protein) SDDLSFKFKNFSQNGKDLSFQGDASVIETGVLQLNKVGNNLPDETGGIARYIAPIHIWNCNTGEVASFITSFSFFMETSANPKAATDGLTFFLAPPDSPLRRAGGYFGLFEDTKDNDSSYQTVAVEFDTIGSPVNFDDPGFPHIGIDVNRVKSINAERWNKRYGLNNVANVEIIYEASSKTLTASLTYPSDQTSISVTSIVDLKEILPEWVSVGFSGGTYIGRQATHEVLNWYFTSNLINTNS ?
A) -0.204

Q) Another binder: MRCL (Homo sapiens), NP_872425.1 (protein) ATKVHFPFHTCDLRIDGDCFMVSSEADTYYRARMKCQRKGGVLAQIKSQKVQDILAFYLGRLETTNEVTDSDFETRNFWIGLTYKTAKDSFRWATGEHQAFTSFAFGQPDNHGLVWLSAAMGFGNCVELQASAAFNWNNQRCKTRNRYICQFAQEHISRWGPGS
A) -0.679

Q) Also, BDCA2 ex-domain (Homo sapiens) (protein) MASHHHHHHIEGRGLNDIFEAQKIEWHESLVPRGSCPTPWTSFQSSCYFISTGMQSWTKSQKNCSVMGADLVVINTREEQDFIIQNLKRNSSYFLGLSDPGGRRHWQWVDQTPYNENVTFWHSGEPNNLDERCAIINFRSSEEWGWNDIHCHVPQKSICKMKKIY please.
A) -0.187
